# Test System: T1, ZFP SBS#1293 (synthetic)
# T1 chain: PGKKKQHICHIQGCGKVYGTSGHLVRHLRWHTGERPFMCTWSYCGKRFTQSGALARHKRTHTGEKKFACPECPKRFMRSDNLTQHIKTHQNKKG
# Assay Comment: EMSA
# Condition: tags: MBP fusion
Outcome Measure: Kd (nM)
Use nM as the unit, but write only the number.

So, AAGGTAGGT (dsDNA) DNA 1: AAGGTAGGT DNA 2: ACCTACCTT ? Its Kd was 0.457

Hey, just so you know, these numbers are from patent US20030068675.
